Biological target: HLA-A*0201 (human)
Test: competitive binding assay, purified HLA
Conditions: remark: other sources report otherwise
Measured Quantity: pIC50
Scale note: pIC50 = -log10(concentration in M).

binder YLQLVFGIEV [MAGE2.157] , pIC50 observed: 7.30
